Answer each item with its documented Tau envelope growth velocity.
Test system: Tau-mCherry (Tau 441 isoform) on stabilized MTs from porcine brain tubulin
assay-details: Tau-mCherry binding to stabilized MTs (TIRF)
Format: biochemical
experimental-parameters: 10 nM Tau-mCherry; MTs polymerized in the presence of drug (preassembly)

// solved cases for Tau envelope growth velocity follow
[[record]]
compound = "CC(=O)O[C@H]1C(=O)[C@]2(C)[C@@H](OC(=O)[C@H](C)NC(=O)c3ccc(-c4c5cc(F)c(=O)cc-5oc5cc(O)c(F)cc45)c(C(=O)O)c3)C[C@H]3OC[C@@]3(OC(C)=O)[C@H]2[C@H](OC(=O)c2ccccc2)[C@]2(O)C[C@H](OC(=O)[C@H](O)[C@@H](NC(=O)c3ccccc3)c3ccccc3)C(C)=C1C2(C)C [FTX2, Flutax2]"
assay_readout = "Tau envelope growth velocity"
val = "1.37 ± 0.09 μm/s"

[[record]]
compound = "CC(=O)OC1C(=O)C2(C)C(OC(=O)CCCCC(=O)OC3CCc4ccccc43)CC3OCC3(OC(C)=O)C2C(OC(=O)c2ccccc2)C2(O)CC(OC(=O)C(O)C(NC(=O)c3ccccc3)c3ccccc3)C(C)=C1C2(C)C (stereo not shown) [1a]"
assay_readout = "Tau envelope growth velocity"
val = "1.5 ± 0.1 μm/s"


I would be grateful if you could provide Tau envelope growth velocity for each of the following entries.
1. COc1ccc2c(c1)CC(NC(=O)CCCCCCCC(=O)OC1CC3OCC3(OC(C)=O)C3C(OC(=O)c4ccccc4)C4(O)CC(OC(=O)C(O)C(NC(=O)c5ccccc5)c5ccccc5)C(C)=C(C(OC(C)=O)C(=O)C13C)C4(C)C)CC2 (stereo not shown) [1b]
2. CC(=O)O[C@H]1C(=O)[C@@]2(C)[C@H]([C@H](OC(=O)c3ccccc3)[C@]3(O)C[C@H](OC(=O)[C@H](O)[C@@H](NC(=O)c4ccccc4)c4ccccc4)C(C)=C1C3(C)C)[C@]1(OC(C)=O)CO[C@@H]1C[C@@H]2O [PTX, Paclitaxel]

0.46 ± 0.05 μm/s
0.054 ± 0.006 μm/s

====

Tested on: Tau-mCherry (Tau 441 isoform) on stabilized MTs from porcine brain tubulin
assay-details: Tau-mCherry binding to stabilized MTs (TIRF)
Format: biochemical
experimental-parameters: 40 nM Tau-mCherry
assay-readout: Tau-mCherry coating of stabilized MTs

[[record]]
compound = "COc1ccc2c(c1)CC(NC(=O)CCCCCCCC(=O)OC1CC3OCC3(OC(C)=O)C3C(OC(=O)c4ccccc4)C4(O)CC(OC(=O)C(O)C(NC(=O)c5ccccc5)c5ccccc5)C(C)=C(C(OC(C)=O)C(=O)C13C)C4(C)C)CC2 (stereo not shown)"
val = "fully coated"

[[record]]
compound = "CC(=O)O[C@H]1C(=O)[C@]2(C)[C@@H](OC(=O)[C@H](C)NC(=O)c3ccc(-c4c5cc(F)c(=O)cc-5oc5cc(O)c(F)cc45)c(C(=O)O)c3)C[C@H]3OC[C@@]3(OC(C)=O)[C@H]2[C@H](OC(=O)c2ccccc2)[C@]2(O)C[C@H](OC(=O)[C@H](O)[C@@H](NC(=O)c3ccccc3)c3ccccc3)C(C)=C1C2(C)C"
val = "fully coated"

[[record]]
compound = "CC(=O)OC1C(=O)C2(C)C(OC(=O)CCCCC(=O)OC3CCc4ccccc43)CC3OCC3(OC(C)=O)C2C(OC(=O)c2ccccc2)C2(O)CC(OC(=O)C(O)C(NC(=O)c3ccccc3)c3ccccc3)C(C)=C1C2(C)C (stereo not shown)"
val = "fully coated"

